target desc: voltage-gated K+ channel KCNQ2 (Homo sapiens, UniProt O43526)
run description: Thallium flux assay for openers of KCNQ potassium channels
condition context: 10 point concentration series, concentration required to yield 50% of the maximal response
pEC50: −log10 of the molar value.
property: pEC50

Exercise: Please give the documented pEC50 of O=C(/C=C/c1ccccc1Cl)N[C@H](c1ccc2ccccc2c1)[C@H](O)CO [Example 106]
Solution: 5.84

Exercise: Please give the documented pEC50 of O=C(/C=C/c1cccc(F)c1)N[C@@H](CO)c1ccc2ccccc2c1 [Example 47]
Solution: 7.41

Exercise: Please give the documented pEC50 of O=C(/C=C/c1ccc(F)cc1)N[C@@H](CO)c1ccc2ccccc2c1 [Example 48]
Solution: 6.30

Exercise: Please give the documented pEC50 of O=C(/C=C/c1ccc(F)cc1F)N[C@H](c1ccc2ccccc2c1)[C@H](O)CO [Example 111]
Solution: 6.01

[I] O=C(/C=C/c1ccc(F)cc1F)N[C@@H](CO)c1ccc2ccccc2c1 [Example 55]
[II] O=C(/C=C/c1ccccc1)N[C@@H](CO)c1ccc2ccccc2c1 [Example 49]
[III] O=C(/C=C/c1ccc(F)c(F)c1)N[C@@H](CO)c1ccc2ccccc2c1 [Example 58]
Exercise: Kindly order the items shown according to pEC50, from the highest value down. Reply with the item labels sorted in the order that was asked for.
Solution: I, II, III
